Several publications report IC50 on Serine/threonine-protein kinase N1 (Homo sapiens); those values are gathered here.
MEASURED_ENDPOINT: IC50 (µM)

INSERT INTO measurements (compound, measured_endpoint, result_number) VALUES
  ('Cc1c(O)c(O)c2c(c1C=O)[C@@H]1O[C@H](O2)c2c(C)c(O)c(O)c(O)c2C1=O (racemic)', 'IC50', 4.48),
  ('Cc1c(O)c(O)c(O)c2c1COC2=O', 'IC50', 18.6),
  ('O=S(=O)(c1cccc2cnccc12)N1CCCNCC1', 'IC50', 1.7);

A = CCn1c(-c2ccncc2)cc2c1CCNC2=O
B = CCCn1c(-c2ccncc2)cc2c1CCNC2=O
Ask: Returns: the argument ( A or B ) having the larger IC50. Output the label that corresponds to your choice.
Reply: A

a = O=C1NC(c2ccccc2)Cc2[nH]c(-c3ccncc3)cc21 (stereo not given)
b = Cn1c(-c2ccncc2)cc2c1CCNC2=O
c = CC(C)n1c(-c2ccncc2)cc2c1CCNC2=O
Ask: Please list these compounds in decreasing order of IC50. Order the labels as requested and give them as your answer.
Reply: b, c, a
(b: 4.5 µM, c: 1.84 µM, a: 0.52 µM)
